# IC50 per entry
experiment: Cytotoxicity against multi-drug resistant human KB/VJ300 cells in presence of 0.1 ug/ml vincristine; assay type: functional, cell-based
VALUE TYPE: IC50 (µM)

MOLECULE SMILES	VALUE TYPE	OBS VALUE
CC(=O)C1=COC[C@@H]2[C@H]1C[C@H]1c3c(c4ccccc4n3C)C[C@@H]2N1C	IC50	10
C/C=C1/CN2CCc3c4n(c5ccccc35)[C@H](C(=O)OC)[C@H]1C[C@@H]42	IC50	40
CC(=O)O[C@@H]1[C@@H]2[C@@H]3C[C@H]4c5c(c6ccccc6n5C)C[C@@H]([C@@H]3CO[C@H]2C)N14	IC50	40
C[C@@H]1OC[C@@H]2[C@H]3C[C@H]4c5c(c6ccccc6n5C)C[C@@H]2N4[C@H](O)[C@H]31	IC50	40
C/C=C1\C(=O)OC[C@H]2[C@@H]3Cc4c(n(C)c5ccc(OC)cc45)[C@H](C[C@@H]12)N3	IC50	40
